Provide the recorded log10(EC50) for the entries that follow.
# system-tested: NP of A/California/07/2009(H1N1/H1S) (influenza A virus, NYMC X-181 derived …)
# Sequence (P03466 whole entry): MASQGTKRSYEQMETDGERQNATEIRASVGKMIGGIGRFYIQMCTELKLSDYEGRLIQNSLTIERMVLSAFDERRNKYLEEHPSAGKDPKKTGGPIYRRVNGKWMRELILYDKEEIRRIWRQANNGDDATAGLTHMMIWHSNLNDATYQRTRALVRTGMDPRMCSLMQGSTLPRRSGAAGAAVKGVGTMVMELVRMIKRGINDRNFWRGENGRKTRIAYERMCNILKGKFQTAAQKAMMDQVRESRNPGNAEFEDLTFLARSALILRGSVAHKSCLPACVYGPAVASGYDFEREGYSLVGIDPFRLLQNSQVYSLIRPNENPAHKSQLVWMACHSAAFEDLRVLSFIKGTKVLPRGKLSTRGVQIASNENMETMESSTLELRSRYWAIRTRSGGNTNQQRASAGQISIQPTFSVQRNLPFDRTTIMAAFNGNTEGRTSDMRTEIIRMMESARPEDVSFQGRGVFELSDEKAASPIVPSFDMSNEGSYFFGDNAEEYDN
# experimental-protocol: sandwich ELISA, capture IgG; NP of lysed virus titrated; HRP-NP16 detection
On a log10 scale: recorded EC50, unit nM.

Request: Need log10(EC50), item NP6 (antibody, V domains shown) VH: EVQLVESGGGLVQPGGSLRLSCAASGFTINDGSIHWVRQAPGKGLEWVAGIGPFGGFTYYADSVKGRFTISADTSKNTAYLQMNSLRAEDTAVYYCARSGYSGSFDYWGQGTLVTVSS VL: DIQMTQSPSSLSASVGDRVTITCRASQDVYFGVAWYQQKPGKAPKLLIYGTSYLYSGVPSRFSGSGSGTDFTLTISSLQPEDFATYYCQQFSNWPITFGQGTKVEIKR
Result: 0.49

Request: // lookup log10(EC50) for NP8 (antibody, V domains shown) VH: EVQLVESGGGLVQPGGSLRLSCAASGFTINSFGIHWVRQAPGKGLEWVAGIGPFGGSTFYADSVKGRFTISADTSKNTAYLQMNSLRAEDTAVYYCARGFYWFDYWGQGTLVTVSS VL: DIQMTQSPSSLSASVGDRVTITCRASQDVDDSVAWYQQKPGKAPKLLIYWTRYLYSGVPSRFSGSGSGTDFTLTISSLQPEDFATYYCQQGYNYPLTFGQGTKVEIKR
Result: 0.37

Request: Query: log10(EC50); subject: NP3 (antibody, V domains shown) VH: EVQLVESGGGLVQPGGSLRLSCAASGFTISNYGIHWVRQAPGKGLEWVAGIWPFGGFTSYADSVKGRFTISADTSKNTAYLQMNSLRAEDTAVYYCARFHWNDHGYMDYWGQGTLVTVSS VL: DIQMTQSPSSLSASVGDRVTITCRASQDVGWYVAWYQQKPGKAPKLLIYSTTGLYSGVPSRFSGSGSGTDFTLTISSLQPEDFATYYCQQYYNYPITFGQGTKVEIKR
Result: 0.29

Request: Quick one: log10(EC50) of NP9 (antibody, V domains shown) VH: EVQLVESGGGLVQPGGSLRLSCAASGFTINNGWIHWVRQAPGKGLEWVAGIGPYWGFTSYADSVKGRFMISADTSKNTAYLQMNSLRAEDTAVYYCARFDSDHDHHYSYYYYYDNGYMDYWGQGTLVTVSS VL: DIQMTQSPSSLSASVGDRVTITCRASQDVWFSVAWYQQKPGKAPKLLIYGTTSLYSGVPSRFSGSGSGTDFTLTISSLQPEDFATYYCQQYFNYPLTFGQGTKVEIKR ?
Result: 1.73

Request: # lookup: log10(EC50) of NP13 (antibody, V domains shown) VH: EVQLVESGGGLVQPGGSLRLSCAASGFTINNYGIHWVRQAPGKGLEWVASIGPYGGSTYYADSVKGRFTISADTSKNTAYLQMNSLRAEDTAVYYCARFGYFNWLDMDYWGQGTLVTVSS VL: DIQMTQSPSSLSASVGDRVTITCRASQDVGYWVAWYQQKPGKAPKLLISSASGLYSGVPSRFSGSGSGTDFTLTISSLQPEDFATYYCQQGWDWPITFGQGTKVEIKR
Result: 2.23
